# TESTED_ON: T1, recombinant human 4R0N tau (human, UniProt P10636 2-758)
# T1 construct: also called recombinant 4R0N human tau; P10636-6
# RUN_DESCRIPTION: SPR Biacore T200; antibody captured by anti-human Fc; tau as analyte; global 1:1 fit
MEASUREMENT_NAME: log10 of Kd (log10 of the value in pM)

* hu9F5VHv9/hu9F5VLv8_DIM18 (antibody, V domains shown) VH: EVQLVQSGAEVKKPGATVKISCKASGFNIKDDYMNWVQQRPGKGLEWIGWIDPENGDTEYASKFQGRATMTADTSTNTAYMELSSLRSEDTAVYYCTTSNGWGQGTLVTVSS VL: DIQMTQSPFSLPVTPGESASISCRSSKSLDHSNGITYLYWYGQKPGQSPQLLIYQGSNRASGVPNRFSSSGSGTDFTLKISRVEAEDVGVYYCAQNIELPLTFGQGTKLEIK | 1.65
* hu9F5VHv9/hu9F5VLv8_DIM21 (antibody, V domains shown) VH: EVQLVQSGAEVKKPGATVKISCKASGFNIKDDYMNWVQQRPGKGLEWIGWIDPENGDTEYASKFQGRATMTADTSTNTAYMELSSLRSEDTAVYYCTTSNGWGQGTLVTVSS VL: DIQMTQSPFSLPVTPGESASISCRSSKSLSHSNGITYLYWYQQKPGQSPQLLIYQISNGASGVPNRFSSSGSGTDFTLKISRVEAEDVGVYYCAQNLELPLTFGQGTKLEIK | 5.93
* hu9F5VHv9/hu9F5VLv8_DIM5 (antibody, V domains shown) VH: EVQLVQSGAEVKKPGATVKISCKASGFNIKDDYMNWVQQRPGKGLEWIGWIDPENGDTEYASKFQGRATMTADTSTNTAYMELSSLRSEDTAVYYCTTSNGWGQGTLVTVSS VL: DIQMTQSPFSLPVTPGESASISCRSSKSLGHSNGITYLYWYQQKPGQSPQLLIYQGSNRASGVPNRFSSSGSGTDFTLKISRVEAEDVGVYYCAQNIELPLTFGQGTKLEIK | 2.23
* hu9F5VHv9/hu9F5VLv8_DIM15 (antibody, V domains shown) VH: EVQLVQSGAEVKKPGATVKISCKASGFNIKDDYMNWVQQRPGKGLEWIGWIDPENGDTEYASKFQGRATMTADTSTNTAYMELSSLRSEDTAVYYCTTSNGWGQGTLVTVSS VL: DIQMTQSPFSLPVTPGESASISCRSSKSLGHSNGITYLYWYGQKPGQSPQLLIYQGSNTASGVPNRFSSSGSGTDFTLKISRVEAEDVGVYYCAQNGELPLTFGQGTKLEIK | 2.94
* hu9F5VHv9/hu9F5VLv8_DIM3 (antibody, V domains shown) VH: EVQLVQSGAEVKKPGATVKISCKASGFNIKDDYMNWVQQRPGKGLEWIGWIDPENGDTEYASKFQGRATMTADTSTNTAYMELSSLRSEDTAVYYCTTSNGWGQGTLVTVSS VL: DIQMTQSPFSLPVTPGESASISCRSSKSLSHSNGITYLYWYQQKPGQSPQLLIYQGSNTASGVPNRFSSSGSGTDFTLKISRVEAEDVGVYYCAQNIELPLTFGQGTKLEIK | 2.78
* hu9F5VHv9/hu9F5VLv8_DIM11 (antibody, V domains shown) VH: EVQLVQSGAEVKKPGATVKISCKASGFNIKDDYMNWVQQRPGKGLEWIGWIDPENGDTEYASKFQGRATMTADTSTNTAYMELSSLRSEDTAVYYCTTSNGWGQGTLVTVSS VL: DIQMTQSPFSLPVTPGESASISCRSSKSLGHSNGITYLYWYGQKPGQSPQLLIYQGSNRASGVPNRFSSSGSGTDFTLKISRVEAEDVGVYYCAQNIELPLTFGQGTKLEIK | 1.89
* hu9F5VHv9/hu9F5VLv8_DIM23 (antibody, V domains shown) VH: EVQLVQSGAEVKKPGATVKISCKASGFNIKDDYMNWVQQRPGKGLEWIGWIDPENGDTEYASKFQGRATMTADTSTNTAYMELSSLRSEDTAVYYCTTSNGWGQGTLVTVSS VL: DIQMTQSPFSLPVTPGESASISCRSSKSLGHSNGITYLYWYQQKPGQSPQLLIYQESNGASGVPNRFSSSGSGTDFTLKISRVEAEDVGVYYCAQNIELPLTFGQGTKLEIK | 3.09
* hu9F5VHv9/hu9F5VLv8_DIM7 (antibody, V domains shown) VH: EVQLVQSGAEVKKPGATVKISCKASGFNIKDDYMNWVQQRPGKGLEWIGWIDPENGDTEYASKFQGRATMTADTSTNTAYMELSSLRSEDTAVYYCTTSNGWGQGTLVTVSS VL: DIQMTQSPFSLPVTPGESASISCRSSKSLDHSNGITYLYWYQQKPGQSPQLLIYQKSNRASGVPNRFSSSGSGTDFTLKISRVEAEDVGVYYCAQNIELPLTFGQGTKLEIK | 2.26
* hu9F5VHv9/hu9F5VLv8_DIM27 (antibody, V domains shown) VH: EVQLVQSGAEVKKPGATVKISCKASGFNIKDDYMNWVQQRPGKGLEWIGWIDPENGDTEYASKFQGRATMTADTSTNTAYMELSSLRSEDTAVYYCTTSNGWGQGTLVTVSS VL: DIQMTQSPFSLPVTPGESASISCRSSKSLLHSNGITYLYWYQQKPGQSPQLLIYQGSNRASGVPNRFSSSGSGTDFTLKISRVEAEDVGVYYCAQNIELPLTFGQGTKLEIK | 2.20
* hu9F5VHv10/hu9F5VLv9_DIM10 (antibody, V domains shown) VH: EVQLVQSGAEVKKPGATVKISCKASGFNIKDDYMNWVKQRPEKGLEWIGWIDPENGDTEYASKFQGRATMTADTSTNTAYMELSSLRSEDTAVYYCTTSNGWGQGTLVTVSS VL: DIQMTQSPFSLPVTPGESASISCRSSKSLSHSNGITYLYWYQQKPGQSPQLLIYQKSNGASGVPDRFSSSGSGTDFTLKISRVEAEDVGVYYCAQNIELPLTFGQGTKLEIK | 3.58
* hu9F5VHv10/hu9F5VLv9_DIM1 (antibody, V domains shown) VH: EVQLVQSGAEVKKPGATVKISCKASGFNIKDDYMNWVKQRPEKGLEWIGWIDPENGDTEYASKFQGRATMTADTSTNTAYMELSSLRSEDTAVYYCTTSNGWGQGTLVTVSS VL: DIQMTQSPFSLPVTPGESASISCRSSKSLSHSNGITYLYWYQQKPGQSPQLLIYQGSNGASGVPDRFSSSGSGTDFTLKISRVEAEDVGVYYCAQNIELPLTFGQGTKLEIK | 3.17
* hu9F5VHv9/hu9F5VLv8_DIM1 (antibody, V domains shown) VH: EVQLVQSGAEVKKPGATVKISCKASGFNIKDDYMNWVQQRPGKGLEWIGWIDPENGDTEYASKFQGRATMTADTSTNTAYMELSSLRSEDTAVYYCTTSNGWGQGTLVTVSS VL: DIQMTQSPFSLPVTPGESASISCRSSKSLSHSNGITYLYWYQQKPGQSPQLLIYQGSNGASGVPNRFSSSGSGTDFTLKISRVEAEDVGVYYCAQNIELPLTFGQGTKLEIK | 2.93
